Test system: HCT-116 (human colorectal carcinoma)
Experiment: MTT cytotoxicity assay, HCT-116
Assay type: cell-based
Settings: TI = IC50 against normal cells (RPE-1)/IC50 against cancer cells (HCT-116)
Measurement Name: Therapeutic index (TI) HCT-116

Sample Smiles | Measurement Name | Reported
CSc1nc(/N=C/c2cc(Br)ccc2O)n(-c2ccc(C(=O)O)cc2)n1 | Therapeutic index (TI) HCT-116 | 1.6
CSc1nc(NC(=S)NCCc2ccccc2)n(-c2ccc(C(=O)O)cc2)n1 | Therapeutic index (TI) HCT-116 | 1.6
CSc1nc(/N=C/c2cc(C)ccc2O)n(-c2ccc(C(=O)O)cc2)n1 | Therapeutic index (TI) HCT-116 | 1.2
CSc1nc(NC(=S)NCc2ccccc2)n(-c2ccc(C(=O)O)cc2)n1 | Therapeutic index (TI) HCT-116 | 2.1
COC(=O)c1ccc(-n2nc(SC)nc2N)cc1 | Therapeutic index (TI) HCT-116 | 1.0
CS(=O)(=O)c1nc(N)n(-c2ccc(C(=O)O)cc2)n1 | Therapeutic index (TI) HCT-116 | 1.4
O=C(O)c1ccc(-n2nc(Oc3ccccc3)nc2NC(=S)NCc2ccccc2)cc1 | Therapeutic index (TI) HCT-116 | 3.8
CSc1nc(/N=C/c2ccc(O)cc2)n(-c2ccc(C(=O)O)cc2)n1 | Therapeutic index (TI) HCT-116 | 1.7
Cc1ccc(O)c(/C=N/c2nc(Oc3ccccc3)nn2-c2ccc(C(=O)O)cc2)c1 | Therapeutic index (TI) HCT-116 | 2.2

###

System: HCT-116 (human colorectal carcinoma)
Test: MTT cytotoxicity assay, HCT-116
Type: cell-based
Conditions: TI = IC50 against normal cells (RPE-1)/IC50 against cancer cells (HCT-116)
# Lookup of reported Therapeutic index (TI) HCT-116 keyed by entry

Sample Smiles | Therapeutic index (TI) HCT-116
COc1ccc(O)c(/C=N/c2nc(Oc3ccccc3)nn2-c2ccc(C(=O)O)cc2)c1 | 1.8
O=C(O)c1ccc(-n2nc(Oc3ccccc3)nc2/N=C/c2cc([N+](=O)[O-])ccc2O)cc1 | 2.3
CSc1nc(/N=C/c2cccc(O)c2)n(-c2ccc(C(=O)O)cc2)n1 | 2.0
Nc1nc(Oc2ccccc2)nn1-c1ccc(C(=O)O)cc1 | 2.4

###

Test system: HCT-116 (human colorectal carcinoma)
Experiment: MTT cytotoxicity assay, HCT-116
Type: cell-based
Conditions: TI = IC50 against normal cells (RPE-1)/IC50 against cancer cells (HCT-116)
# Lookup of reported Therapeutic index (TI) HCT-116 keyed by entry

Compound | Therapeutic index (TI) HCT-116
COc1cc(/C=N/c2nc(SC)nn2-c2ccc(C(=O)O)cc2)ccc1O [Compound 7] | 2.1
CSc1nc(/N=C/c2cc([N+](=O)[O-])ccc2O)n(-c2ccc(C(=O)O)cc2)n1 [Compound 5] | 2.5
CSc1nc(N)n(-c2ccc(C(=O)O)cc2)n1 [Compound 1] | 1.5
COc1ccc(O)c(/C=N/c2nc(SC)nn2-c2ccc(C(=O)O)cc2)c1 [Compound 4] | 1.6
COc1cccc2c1C(=O)c1c(O)c3c(c(O)c1C2=O)C[C@@](O)(C(=O)CO)C[C@@H]3O[C@H]1C[C@H](N)[C@H](O)[C@H](C)O1 [Doxorubicin, reference compound] | 2.8

###

Tested on: HCT-116 (human colorectal carcinoma)
Experiment: MTT cytotoxicity assay, HCT-116
Type: cell-based
Conditions: read-out: IC50 (µM) ± SD HCT-116; MTT assay, 48 h, HCT-116
Measurement Name: IC50 (µM)

Compound | Measurement Target | Reported
CSc1nc(NC(=S)NCc2ccccc2)n(-c2ccc(C(=O)O)cc2)n1 [Compound 13] | HCT-116 (human colorectal carcinoma) | 30.1
O=C(O)c1ccc(-n2nc(Oc3ccccc3)nc2NC(=S)NCc2ccccc2)cc1 [Compound 15] | HCT-116 (human colorectal carcinoma) | 23.9

Attribution: paper PMC9064907
